# Assay details: chemical genetic growth profiling, strain panel (AID 1159580);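 also: tested at 20 µM; growth read once vehicle control cultures reached saturation at 30 °C; 1 = growth at the plate median or of vehicle wells; lower values mean less growth of the strain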
# Condition context: S. cerevisiae deletion strains, growth OD, locus YGL240W, strain doc1
The campaign covered roughly 5,500 compounds. About 2,000 (36%) were called active. Roughly 18% stayed inconclusive and do not appear here. Rule as the data show it: active = normalized growth mostly below about 0.91 (no sharp cut-off); inconclusive = no clear call, values can overlap the other calls; inactive = mostly above about 0.92. Some of the results follow.
Outcomes: active, inactive

[
  {
    "Compound": "O=C1c2ccccc2C(=O)c2ccccc21",
    "Discrete label": "inactive"
  },
  {
    "Compound": "CC1(C)CC23C(=O)CCC(O)C2(C)CCC13 (configuration not stated)",
    "Discrete label": "inactive"
  },
  {
    "Compound": "C[N+]12CCC(CC1)C(OC(=O)C(O)(c1ccccc1)c1ccccc1)C2 (configuration not stated)",
    "Discrete label": "inactive"
  },
  {
    "Compound": "CC(=O)OC1CCC23CC1(C)CCC2C(C)(C)CC3OC(C)=O (configuration not stated)",
    "Discrete label": "inactive"
  },
  {
    "Compound": "CNC(C)(C)Cc1ccccc1",
    "Discrete label": "inactive"
  },
  {
    "Compound": "CON",
    "Discrete label": "inactive"
  },
  {
    "Compound": "ClC1C(Cl)C(Cl)C(Cl)C(Cl)C1Cl (configuration not stated)",
    "Discrete label": "active"
  }
]

###

# Assay details: chemical genetic growth profiling, strain panel (AID 1159580);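 also: tested at 20 µM; growth read once vehicle control cultures reached saturation at 30 °C; 1 = growth at the plate median or of vehicle wells; lower values mean less growth of the strain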
# Condition context: S. cerevisiae deletion strains, growth OD, locus YDL040C, strain nat1, hits give low values
Out of some 5,500 compounds screened, about 2,000 (36%) were called active. Not shown: some 18% with an inconclusive outcome. This is one part of the list.
Reported normalized growth values for the following compounds.

[
  {
    "Compound": "CC(C)[C@@H]1CC[C@@H](C)C[C@H]1OC(=O)c1ccccc1",
    "normalized growth": 0.993
  },
  {
    "Compound": "Oc1cccc2cccnc12",
    "normalized growth": 0.476
  },
  {
    "Compound": "O=C(Nc1ccc([N+](=O)[O-])cc1Cl)c1cc(Cl)ccc1O",
    "normalized growth": 0.681
  },
  {
    "Compound": "CC1CC(OC(=O)c2ccccc2O)CC(C)(C)C1 (stereo unspecified)",
    "normalized growth": 0.983
  },
  {
    "Compound": "CC12CCC(O)CC1CCc1ccccc12 (stereo unspecified)",
    "normalized growth": 0.979
  },
  {
    "Compound": "O=C(O)c1cccnc1C(=O)O",
    "normalized growth": 0.985
  }
]

###

# Assay details: chemical genetic growth profiling, strain panel (AID 1159580);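 also: tested at 20 µM; growth read once vehicle control cultures reached saturation at 30 °C; 1 = growth at the plate median or of vehicle wells; lower values mean less growth of the strain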
# Condition context: S. cerevisiae deletion strains, growth OD, locus YOL078W, strain AVO1, hits give low values
Screen size: about 5,500 compounds; about 2,000 (36%) were called active. About 18% were inconclusive and are not listed. The list shows a part of the results.
Property measured: normalized growth

[
  {
    "Compound": "CC(C)c1cccc(C(C)C)c1OC(=O)NC(=O)c1c(Cl)cccc1Cl",
    "Reading": 0.985
  },
  {
    "Compound": "COc1ccc(OC)c2nc3c(nc12)C(=O)c1ccccc1-3",
    "Reading": 0.975
  },
  {
    "Compound": "O=C(Nc1cc(Cl)cc(Cl)c1)c1cc(Br)ccc1O",
    "Reading": 0.952
  },
  {
    "Compound": "O=C(NCc1ccc2c(c1)OCO2)c1cc2ccccc2s1",
    "Reading": 0.842
  },
  {
    "Compound": "Cc1cc(C)c2cc(C(=O)NCCNc3ccc(C(F)(F)F)cn3)[nH]c2c1",
    "Reading": 0.985
  },
  {
    "Compound": "Cn1ncc(-c2nc(-c3ccc(Cl)cc3)cs2)c1N",
    "Reading": 0.934
  },
  {
    "Compound": "COc1cc(C2CC(=S)Nc3ccccc3S2)cc(OC)c1OC (centres undefined)",
    "Reading": 0.985
  },
  {
    "Compound": "S=C(NCCc1csc2ccccc12)Nc1ccc(Cl)cc1",
    "Reading": 0.945
  },
  {
    "Compound": "Cc1cc(N=Cc2cc(Cl)cc(Cl)c2O)no1",
    "Reading": 0.967
  }
]
